System: T47D
Experiment: Cytotoxicity against human T47D cells after 72 hrs by MTT assay
Assay type: functional
Collected GI50 values appear next to each entry.

For orientation, consider the following solved cases.
1) COc1ccc(/C=C/C(=O)Nc2ccc(OC)c(OC)c2)cc1OC    > 50 µM
2) COc1ccc(/C=C/C=C/c2ccc(OC)c(OC)c2)cc1OC    > 100 µM

Prompt line: Name the reported GI50 value associated with the molecule COc1ccc(CC(=O)Nc2ccc(OC)c(OC)c2)cc1OC
Response line: > 100 µM

Prompt line: # iterate: COc1ccc(S(=O)(=O)N2CCc3cc(OC)c(OC)cc3C2)cc1OC
Response line: > 50 µM

Prompt line: # iterate: COc1ccc([C@H]2O[C@H](c3ccc(OC)c(OC)c3)[C@@H](C)[C@H]2C)cc1OC
Response line: 4.4 µM

Prompt line: # iterate: COc1ccc(NC(=O)c2ccc(OC)c(OC)c2)cc1OC
Response line: > 100 µM
